Measured values drawn from patent US20190119282A1 for this set.

Listed here are compounds together with their documented bioavailability.
testProtocol: In vivo rat pharmacokinetics (intravenous and oral)
assayContext: plasma, oral by gavage
Please state the figure in %; there is no need to write the unit.

For orientation, consider the following solved cases.
{"smilesString": "CC(C)(C)c1cc(-c2ccc(C(F)(F)F)cc2)nn2cc(C(=O)N3CCNC(=O)C3(C)C)nc12", "bioavailability, %": 76}
{"smilesString": "Cc1cc(-c2ccc(F)cc2)nn2cc(C(=O)N3CCN(C(=O)[C@H](O)CC(C)(C)C)[C@@H](C)C3)nc12", "bioavailability, %": 57}

Recorded bioavailability for CC1(C)C(=O)NCCN1C(=O)c1cn2nc(-c3ccc(F)cc3)cc(C3CCOCC3)c2n1 , please? 71

How about CC(C)(C)c1cc(-c2ccc(F)cc2)nn2cc(C(=O)N3CCN(C(=O)[C@H]4CC[C@@](C)(C(=O)O)CC4)CC3(C)C)nc12 ? 15

====

assaySystem: PAR2 (HT-29 cells, SLIGKV activation) (Homo sapiens)
Construct: host or cells: HT-29 cells
Sequence (P55085 26-397): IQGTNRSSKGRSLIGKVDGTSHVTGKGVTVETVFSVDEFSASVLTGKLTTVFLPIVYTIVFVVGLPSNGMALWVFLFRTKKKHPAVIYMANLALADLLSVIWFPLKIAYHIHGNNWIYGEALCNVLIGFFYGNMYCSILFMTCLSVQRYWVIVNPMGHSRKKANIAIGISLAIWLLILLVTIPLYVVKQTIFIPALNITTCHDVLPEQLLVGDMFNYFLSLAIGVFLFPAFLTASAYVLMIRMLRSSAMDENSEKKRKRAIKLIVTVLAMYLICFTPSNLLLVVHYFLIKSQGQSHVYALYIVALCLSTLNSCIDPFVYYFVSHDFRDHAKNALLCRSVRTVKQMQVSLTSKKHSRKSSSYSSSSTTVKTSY
testProtocol: Ca FLIPR TETRA assay, ANTAGONIST mode, stimulation with 8 μM SLIGKV
Format: cell-based
assayContext: HT-29 cells, antagonist mode, stimulation with 8 μM SLIGKV
Measured IC50 of individual entries
# output: bare number, implied unit nM

See these solved cases before continuing.
{"smilesString": "Cc1ccc(-c2cc(C(C)C)c3nc(C(=O)N4CCN(C(=O)c5nc[nH]n5)CC4(C)C)cn3n2)cc1", "IC50 (nM)": 11.4}
{"smilesString": "Cc1cc(-c2cc(C(C)(C)C)c3nc(C(=O)N4CCN(c5cn[nH]c5)C(=O)C4(C)C)cn3n2)ccc1F", "IC50 (nM)": 2.5}

--- query ---
I have this compound here, CC(C)(C)c1cc(C2CCC(F)(F)CC2)nn2cc(C(=O)N3CCNC(=O)C3(C)C)nc12 , and I need its recorded IC50. 30.7

====

assaySystem: PAR2 (HT-29 cells, SLIGKV activation) (Homo sapiens, UniProt P55085)
Construct: host or cells: HT-29 cells
testProtocol: Ca FLIPR TETRA assay, ANTAGONIST mode, stimulation with 8 μM SLIGKV
Assay type: cell-based
assayContext: Table 6; HT-29 cells, 8 μM SLIGKV
metricName: IC50 (µM)
Give the number; µM is assumed, so skip it.

{"smilesString": "O=C(c1cn2nc(-c3ccc(F)cc3)cc(C(F)(F)F)c2n1)N1CCN(Cc2ccccn2)CC1", "reading": 50}
{"smilesString": "Cc1cc(-c2ccc(F)cc2)nn2cc(C(=O)N3CCCC4(COC4)C3)nc12", "reading": 13}

Attention now turns to another entry.
Look up IC50: N#Cc1cccnc1N1CCN(C(=O)c2cn3nc(-c4ccc(F)cc4)cc(C(F)(F)F)c3n2)CC1 50
